# System: XIP peptide (Xip251-270) binding
# experimentNotes: small-molecule binders of XIP peptide, primary screen, biochemical, small-molecule microarray, fluorescence 635/667 nm, 0.1 µg/mL protein (AID 1182)
# recordedConditions: fluorescent protein binding, 635 nm, higher = more signal, called active from +8 up or from −8 down
resultType: composite z-score
Respond using a number only.

Look up composite z-score: `NCCCCCNC(=O)[C@@H]1C[C@@H]2C(=O)N[C@@H](Cc3ccccc3)C(=O)N2[C@@H]1c1ccc(O)cc1`
0.632

Now the compound `COC(=O)[C@@]1(Cc2ccccc2)[C@H]2c3cc(C(=O)N4CCCC4)n(Cc4ccc(S(C)(=O)=O)cc4)c3C[C@H]2CN1C(=O)c1ccccc1`
0.478

Input `COc1cc2c(cc1OC)CN(C(=O)[C@@H]1[C@H]3C(=O)O[C@H](c4ccccc4)[C@H](c4ccccc4)N3[C@H](c3ccc(O)cc3)[C@@]13C(=O)Nc1ccccc13)CC2`
0.0997
